Tested on: MKL-1
assay.remarks: qHTS assay to identify novel small-molecules to repurpose for Merkel cell carcinoma treatment (AID 1296009); also: nearly all actives have a fitted effect of over 60% in size
test.conditions: MCC and control cell lines, CellTiter-Glo viability, 72 h; series mostly up to 46 µM
Records with an inconclusive call do not appear. The source made the active and inactive calls. Calls follow the shape of the dose curve; as a rule, active = well fitted inhibition curve with a large enough effect; inconclusive = small, poorly fitted or top-dose-only effect; inactive = flat fitted curve, though single readings scatter.
Hello, when you answer, please use one of the following outcomes: YES for active, NO for inactive

Known results for molecules:
molecule	answer.label
CN1CCC[C@@H]1c1cccnc1	NO
CCCCOc1ccc(C(=O)CCN2CCCCC2)cc1	YES

Data request: Please indicate how the test categorized CO/N=C1\CN(c2nc3c(cc2F)c(=O)c(C(=O)O)cn3C2CC2)CC1CN (stereo unspecified) .
Data returned: NO

Data request: // return assay outcome for "CC(=O)OCC(=O)[C@@]12N=C(C)O[C@@H]1C[C@H]1[C@@H]3CCC4=CC(=O)C=C[C@]4(C)[C@H]3[C@@H](O)C[C@@]12C"
Data returned: NO

Data request: Give the logged outcome of this assay for the following molecule: "CC(C)(C)CC(C)(C)c1ccc(OCCOCC[N+](C)(C)Cc2ccccc2)cc1"
Data returned: YES

Data request: Test call, this molecule: "OC(CCN1CCCCC1)(c1ccccc1)c1ccccc1"
Data returned: NO

Data request: Kindly provide the recorded test outcome for the following molecule: "O=S1(=O)c2cccc3cccc(c23)N1CCCN1CCN(c2ccc(F)cc2)CC1"
Data returned: NO

Data request: Tell me the recorded outcome of this test for CCCC(=O)Nc1ccc(OCC(O)CNC(C)C)c(C(C)=O)c1 (stereo unspecified) .
Data returned: NO

Data request: Record request — test call for "Cc1c(C)n(Cc2ccccc2)c2ccc(C(=O)OCCN(C)C)cc12"
Data returned: NO

Data request: Recorded test outcome, item "CC(C)(Oc1ccc(Cl)cc1)C(=O)O"
Data returned: NO

Data request: Which outcome was assigned to "O=C(CCCN1CCC(O)(c2ccc(Br)cc2)CC1)c1ccc(F)cc1" in this test?
Data returned: NO

* * *

Tested on: OV90
assay.remarks: Primary qHTS to identify gynecologic anti-cancer compounds using libraries of approved drugs and bioactive compounds (AID 1345084); also: nearly all actives have a fitted effect of over 55% in size
test.conditions: Gynecologic cancer cell panel viability, ATPlite luminescence, 48 h; series mostly up to 57.5 µM
Results filed as inconclusive are left out. Calls of active or inactive are those of the source. The call rests on the fitted dose curve; in most records, active means well fitted cell-killing curve with a large enough effect; inconclusive means small, poorly fitted or top-dose-only effect, or effect the other way; inactive means flat fitted curve, though single readings scatter.
Field 'call' accepts active, inactive

compound	answer.label
CC(CCc1ccccc1)NCC(O)c1ccc(O)c(C(N)=O)c1 (centres undefined)	inactive
CCCC(=O)O[C@]1(C(=O)CO)CC[C@H]2[C@@H]3CCC4=CC(=O)CC[C@]4(C)[C@H]3[C@@H](O)C[C@@]21C	inactive

Let's switch to this compound now.
Data request: Which result was noted for this compound in the test: "NCCC(O)(P(=O)(O)O)P(=O)(O)O"
Data returned: inactive

* * *

Tested on: Tov112D
assay.remarks: Primary qHTS to identify gynecologic anti-cancer compounds using libraries of approved drugs and bioactive compounds (AID 1345084); also: nearly all actives have a fitted effect of over 55% in size
test.conditions: Gynecologic cancer cell panel viability, ATPlite luminescence, 48 h; series mostly up to 57.5 µM
Inconclusive results are not listed. Activity calls are given as the source filed them. The call rests on the fitted dose curve; in most records, active means well fitted cell-killing curve with a large enough effect; inconclusive means small, poorly fitted or top-dose-only effect, or effect the other way; inactive means flat fitted curve, though single readings scatter.
Bench note: report the call from active, inactive

Worked examples, 5 compounds total:
compound	answer.label
O=c1[nH]c(=O)n([C@H]2C[C@H](O)[C@@H](CO)O2)cc1C(F)(F)F	active
COc1cc2c(cc1OC)[C@@H]1CC(=O)[C@@H](CC(C)C)CN1CC2	inactive
N[C@H](Cc1c[nH]c2ccccc12)C(=O)O	inactive
CCCCCCCCCCCCCCCC[N+](C)(C)CC	active
CC(=O)c1ccc2c(c1)N(CCCN1CCC(CCO)CC1)c1ccccc1S2	inactive

Kindly consider the entry below.
Data request: Recorded test outcome, item "CC/C(=C(/CC)c1ccc(O)cc1)c1ccc(O)cc1"
Data returned: inactive

* * *

assay.remarks: P-glycoprotein substrates identified in KB-8-5-11 adenocarcinoma cell line, qHTS therapeutic library screen (AID 1346987); also: nearly all actives have a fitted effect of over 65% in size; also: potency is read from the fitted curve at half-maximal effect
test.conditions: KB-8-5-11 (P-gp overexpressing) viability, CellTiter-Glo, 72 h; series mostly up to 44.5 µM
Records with an inconclusive call do not appear. Active and inactive are the calls of the source. The call rests on the fitted dose curve; in most records, active means well fitted inhibition curve with a large enough effect; inconclusive means small, poorly fitted or top-dose-only effect; inactive means flat fitted curve, though single readings scatter.
measure: Potency

Use the examples below as a reference point.
molecule	measure	endpoint.result
C[C@]12CC[C@@H]3c4ccc(O)cc4CC[C@H]3[C@@H]1CC[C@@H]2O	Potency	6.51 µM (active)
CN(C)CC/C=C1/c2ccccc2COc2ccc(CC(=O)O)cc21	Potency	inactive
O=c1ccc2ccccc2o1	Potency	inactive
Oc1ccc(Cl)c2cccnc12	Potency	inactive
O=C1CCC(c2ccc(-n3ccnc3)cc2)=NN1	Potency	1.46 µM (active)
C[C@H]1C[C@H]2[C@@H]3CCC4=CC(=O)C=C[C@]4(C)[C@@]3(Cl)[C@@H](O)C[C@]2(C)[C@@]1(O)C(=O)CO	Potency	inactive
Oc1ccc(O)cc1	Potency	inactive
OC[C@H]1O[C@@H](n2cnc3c(=S)nc[nH]c32)[C@H](O)[C@@H]1O	Potency	1.84 µM (active)

Each of the following entries comes with a recorded value; kindly state Potency for each.
1. CCC(=O)c1c(O)cc(O)cc1O
2. CCN(CC)CCOC(=O)C(c1ccccc1)C1CCCCC1 (stereo not drawn)
3. CCCCOc1cc(C(=O)NCCN(CC)CC)c2ccccc2n1
4. CCOC(=O)[C@H](CCc1ccccc1)N[C@@H](C)C(=O)N1Cc2ccccc2C[C@H]1C(=O)O
5. Nc1cc(Cl)c(NC2=NCCN2)c(Cl)c1
6. COc1cc(OC)cc(OC)c1
7. CN(C/C=C/c1ccccc1)Cc1cccc2ccccc12

Data returned:
["inactive", "inactive", "inactive", "inactive", "inactive", "inactive", "inactive"]

* * *

Tested on: DIV17
assay.remarks: qHTS profiling for inhibitors of Plasmodium falciparum proliferation (AID 504749); also: nearly all actives have a fitted effect of over 60% in size
test.conditions: P. falciparum in erythrocytes, SYBR Green DNA, 72 h; series mostly up to 28.7 µM
Records with an inconclusive call do not appear. Calls of active or inactive are those of the source. The call rests on the fitted dose curve; in most records, active means well fitted inhibition curve with a large enough effect; inconclusive means small, poorly fitted or top-dose-only effect; inactive means flat fitted curve, though single readings scatter.
Please reply with one of these outcomes: true for active, false for inactive

smiles.record	answer.label
Nc1cc(Cl)c(NC2=NCCN2)c(Cl)c1	false
Cc1cc(N)c2cc(NC(=O)Nc3ccc4nc(C)cc(N)c4c3)ccc2n1	true

Data request: What outcome does the record of this test show for "CCCCCCC[N+](CC)(CC)CCCCc1ccc(Cl)cc1" ?
Data returned: true

Data request: Identify the outcome logged in this assay for the compound shown: "COc1ccc(C2C(=O)c3ccccc3C2=O)cc1"
Data returned: false

* * *

Tested on: W2
assay.remarks: qHTS profiling for inhibitors of Plasmodium falciparum proliferation (AID 504749); also: nearly all actives have a fitted effect of over 60% in size
test.conditions: P. falciparum in erythrocytes, SYBR Green DNA, 72 h; series mostly up to 28.7 µM
Inconclusive results are not listed. Activity calls are given as the source filed them. Calls follow the shape of the dose curve; as a rule, active = well fitted inhibition curve with a large enough effect; inconclusive = small, poorly fitted or top-dose-only effect; inactive = flat fitted curve, though single readings scatter.
The reply should be one of these categories: yes (1) = active, no (0) = inactive

Worked examples, 3 compounds total:
smiles.record	answer.label
CCCCCC=CCC=CCCCCCCCC(=O)OCC	no (0)
CN1CCC[C@@H]1c1cccnc1	no (0)
O=C1c2ccccc2C(=O)C1c1ccccc1	no (0)

Data request: # outcome recorded in this test, key = "NC(=NCCCCCCN=C(N)/N=C(\N)Nc1ccc(Cl)cc1)/N=C(\N)Nc1ccc(Cl)cc1"
Data returned: yes (1)

* * *

assay.remarks: Drug repurposing screens with cells derived from glioblastoma tumor samples (AID 1345199); also: % is scaled to controls: 0 for no effect and ±100 for the full control effect; nearly all actives have a fitted effect of over 40% in size
test.conditions: GBM patient neurospheres viability, ATP luminescence, 48 h; at 45.9 µM (top of the series); tumour line B
Results filed as inconclusive are left out. Activity calls are given as the source filed them. Calls come from the whole dose curve; as a rule, active = well fitted inhibition curve with a large enough effect; inconclusive = small, poorly fitted or top-dose-only effect; inactive = flat fitted curve, though single readings scatter.
Give measured activity, negative = cell killing for each item. Keep answers brief.

Recorded results for 10 compounds are shown here.
compound	activity, negative = cell killing
C[C@@H]1C[C@H]2[C@@H]3C[C@H](F)C4=CC(=O)C(Cl)=C[C@]4(C)[C@@]3(F)[C@@H](O)C[C@]2(C)[C@@]1(O)C(=O)CO	-15.9% (inactive)
CCC(=O)c1c(O)cc(O)cc1O	-0.713% (inactive)
C[C@@H]1C[C@H]2[C@@H]3CCC4=CC(=O)C=C[C@]4(C)[C@@]3(F)[C@@H](O)C[C@]2(C)[C@H]1C(=O)CO	-17.3% (inactive)
Cc1ccc(Nc2c(F)cccc2Cl)c(CC(=O)O)c1	-6.28% (inactive)
O=C(O)CCCCC(=O)O	11.6% (inactive)
CC(C)C[C@H]1C(=O)N2CCC[C@H]2[C@]2(O)O[C@](NC(=O)[C@@H]3C=C4c5cccc6[nH]c(Br)c(c56)C[C@H]4N(C)C3)(C(C)C)C(=O)N12	-7.46% (inactive)
Nc1ccc(C(=O)O)cc1	-6.59% (inactive)
CC(=O)Oc1ccc(C(=C2CCCCC2)c2ccc(OC(C)=O)cc2)cc1	-19.5% (inactive)
C[C@]12C=CC(=O)C=C1CC[C@@H]1[C@@H]2[C@@H](O)C[C@@]2(C)[C@H]1CC[C@]2(O)C(=O)CO	-12.2% (inactive)
C[C@H](CCC(=O)O)[C@H]1CC[C@H]2[C@@H]3C(=O)C[C@@H]4CC(=O)CC[C@]4(C)[C@H]3CC(=O)[C@]12C	-0.788% (inactive)

Go through the items and report each one's activity, negative = cell killing.
1. C[C@H]1C[C@H]2[C@@H]3CCC4=CC(=O)C=C[C@]4(C)[C@@]3(Cl)[C@@H](O)C[C@]2(C)[C@@]1(O)C(=O)CO
2. CC(C)(Oc1ccc(Cl)cc1)C(=O)O
3. CCN1CCCC1=O
4. CCCCCCCCCCCCCCCCOP(=O)([O-])OCC[N+](C)(C)C
5. C#C[C@]1(O)CC[C@H]2[C@@H]3CCC4=CC(=O)CC[C@@H]4[C@H]3CC[C@@]21C

Data returned:
1. -17% (inactive)
2. -11.3% (inactive)
3. -8.97% (inactive)
4. -7.15% (inactive)
5. -9.83% (inactive)

Provide activity, negative = cell killing for all items below, preserving their order.
1. COc1cc(OC)cc(OC)c1
2. O=C1OC(c2ccc(O)cc2)(c2ccc(O)cc2)c2ccccc21

Data returned:
-3.53% (inactive)
-16.9% (inactive)

Data request: Name the recorded activity, negative = cell killing of the item CCC(C(=O)OCCN(CC)CC)c1ccccc1 (stereo not drawn) in your answer.
Data returned: -10.7% (inactive)
